In this section we review reported OD Value Obtained after Binding to hANG2 values for a set of binders.
Biological target: T1, recombinant human ANG2 protein corresponding to Lys275-Phe496 of human ANG2 (human, UniProt O15123 275-496)
T1 construct: also called hANG2
T1 sequence: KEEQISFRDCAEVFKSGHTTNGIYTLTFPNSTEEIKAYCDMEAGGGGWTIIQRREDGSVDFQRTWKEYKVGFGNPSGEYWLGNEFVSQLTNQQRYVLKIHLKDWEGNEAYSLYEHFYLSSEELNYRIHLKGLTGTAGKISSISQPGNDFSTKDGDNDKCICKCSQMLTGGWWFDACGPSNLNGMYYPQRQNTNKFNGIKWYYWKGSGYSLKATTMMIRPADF
Assay: ELISA, hANG2 coated, E. coli supernatant, anti-VHH-HRP
Description: Single colonies of TG1 host strains of the obtained ten strains of heavy-chain single-domain antibodies were selected, inoculated and cultured overnight. […] An ELISA plate was separately coated with an hANG2 protein solution and BSA in […] and placed overnight at 4° C. […] After the stopping solution was added, values at 450 nm were read with a microplate reader within 30 minutes.
Provide a numeric answer, followed by its unit.

Before answering, review these 3 worked examples.
B1-G8 (VHH, Tested as E. coli TG1 culture supernatant (phagemid pComb3XSS); also called anti-ANG2 heavy-chain single-domain antibody B1-G8) VHH: QVQLVESGGGLVQTGDSLRLSCVAPGISFSNRGMAWYRQAPGKQRELVAAIDSAGSQRYAGSVKDRFTISRDNAKNTVFLQMNSLKPEDTAVYYCNQPRFNLWGQGTQVTVSS    2.02 OD 450 nm
B2-A6 (VHH, Tested as E. coli TG1 culture supernatant (phagemid pComb3XSS); also called anti-ANG2 heavy-chain single-domain antibody B2-A6) VHH: QLQLVESGGGLVQAGGSLRLSCFVSGSTFSASLMGWYRQAPGKERELVAGISNIGNTVYADSAKGRFTISRDGAKNTVHLQMNALKPEDTAVYYCYATVPRAAWGQGTQVTVSS    2.39 OD 450 nm
B3-C11 (VHH, Tested as E. coli TG1 culture supernatant (phagemid pComb3XSS); also called anti-ANG2 heavy-chain single-domain antibody B3-C11) VHH: EVQLVESGGGLVQAGGSLRLSCFVSGSTFSASLMGWYRQAPGKERELVAGISNIGNTVYADSAKGRFTISRDGAKNTVHLQMNALKPEDTAVYYCYATVPRAAWGQGTQVTVSS    1.63 OD 450 nm

binder B2-F10 (VHH, Tested as E. coli TG1 culture supernatant (phagemid pComb3XSS); also called anti-ANG2 heavy-chain single-domain antibody B2-F10) VHH: QVQLVESGGGLVQAGGSLRLSCGASGSAVSITLMAWYRQAPGKQRELVAGISNIGDTNYVDSVKDRFTISRINAKNAMYLQMNSLKPEDTAVYYCFAQDWGGHHYWGQGTQVTVSS , OD Value Obtained after Binding to hANG2 observed: 2.06 OD 450 nm

Recorded result, B1-G3 (VHH, Tested as E. coli TG1 culture supernatant (phagemid pComb3XSS); also called anti-ANG2 heavy-chain single-domain antibody B1-G3) VHH: EVQVVESGGGLVQPGGSLRLSCVASMPSGISFSNRGMAWYRQAPGKQRELVAAIDSAGSTRYQDSVKGRFTISRDNAKNTVFLQMNSLKPEDTAVYYCNQPAFKAWGQGTQVTVSS , OD Value Obtained after Binding to hANG2: 1.57 OD 450 nm

GET /value?item= B4-C11 (VHH, Tested as E. coli TG1 culture supernatant (phagemid pComb3XSS); also called anti-ANG2 heavy-chain single-domain antibody B4-C11) VHH: QVQLVESGGGLVQAGGSLRLSCAASGSTFSNVVAGWYRQAPGKQRELVAGISNIGDTRYADSVKGRFTISRDNAKKAVYLQMNSLKPEDTAVYYCYAKYWARDYWGQGTQVTVSS &field=OD Value Obtained after Binding to hANG2 returns 1.58 OD 450 nm
